Consider the following compounds; for each one, report its refractive index.
Experiment: refractive index (Na D-line) (dimensionless)
Conditions: 293.15 K; 93 kPa; Liquid; Standard Abbe refractometry
Answers are plain numbers.

CCc1ccccc1 :: 1.4956
Cc1cccc(C)c1 :: 1.497

Fill in refractive index for each of the 2 compounds listed.
1. Cc1ccccc1C
2. Cc1ccc(C)cc1

Resp:
1.5048
1.4956

---

Assay: refractive index (Na D-line) (dimensionless)
Conditions: 298.15 K; 93 kPa; Liquid; Standard Abbe refractometry
± gives the expanded uncertainty stated by the source.
Consider the following compounds; for each one, report its refractive index.

Reference set, count: 4
Cc1ccccc1C :: 1.5022 ± 0.0004
CCc1ccccc1 :: 1.493 ± 0.0004
Cc1ccc(C)cc1 :: 1.4929 ± 0.0004
COC(=O)OC [dimethyl carbonate] :: 1.3664 ± 0.0004

Req: // lookup refractive index for `Cc1cccc(C)c1`
Resp: 1.4943 ± 0.0004
